Reported pIC50 values are given for each entry in this list.
Molecular target: CDK2 (human)
pIC50: −log10 of the molar value.

CN1CC=CCCOc2cccc(c2)-c2ccnc(n2)Nc2ccc(OCCn3cncn3)c(c2)C1 :: ≥ 6.00
CN1CC=CCC(=O)Nc2cccc(c2)-c2ccnc(n2)Nc2cccc(c2)C1 :: 5.30 to 6.00
C1=CCOCc2cc(ccc2OCCN2CCCC2)Nc2nccc(n2)-c2cc(co2)COC1 :: < 5.30

Q) Which pIC50 reading was recorded for the compound `CN1CC=CCCOc2cccc(c2)-c2ccnc(n2)Nc2ccc(OCCN3CCOCC3)c(c2)C1` ?
A) ≥ 6.00

Q) Now give it for `CN1CC=CCCOc2cccc(c2)-c2ccnc(n2)Nc2ccc(OCCN3CCCC3)c(c2)C1` too.
A) ≥ 6.00
